assay: Drug excretion in rat urine assessed as parent compound level at 195 mg; type: ADME; conditions: read-out: Drug uptake
MEASURED_ATTRIBUTE: dose excreted

GET /values?readout=dose excreted&item= C[C@@H]1CN(C(=O)[C@@H]2CN(C(C)(C)C)C[C@H]2c2ccc(F)cc2F)C[C@H](C)[C@@]1(O)c1ccccc1.Cl
< 2.5%

###

biological target: Melanocortin receptor 3 (Homo sapiens); experiment: Agonist activity at human recombinant MC3 receptor expressed in CHO cells assessed as cAMP accumulation by enzyme fragment complementation assay relative to […]; type: functional, cell-based
Sequence (P41968 whole entry, the tested form may be a part): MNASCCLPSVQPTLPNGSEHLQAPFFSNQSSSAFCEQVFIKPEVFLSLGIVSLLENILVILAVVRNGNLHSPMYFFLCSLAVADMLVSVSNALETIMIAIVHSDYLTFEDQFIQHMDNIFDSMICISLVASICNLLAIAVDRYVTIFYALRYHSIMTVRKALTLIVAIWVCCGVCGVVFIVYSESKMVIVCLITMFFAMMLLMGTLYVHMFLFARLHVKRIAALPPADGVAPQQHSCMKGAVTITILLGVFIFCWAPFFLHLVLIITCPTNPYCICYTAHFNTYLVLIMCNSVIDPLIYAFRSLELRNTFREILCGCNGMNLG
Please assign condition not met whenever Emax is at or above 80%, and condition met whenever it is below.

COMPOUND: C[C@@H]1CN(C(=O)[C@H]2CN(c3cccnn3)C[C@@H]2c2ccc(F)cc2F)C[C@H](C)[C@@]1(O)C1CC1
LABEL_VALUE: condition met
//
COMPOUND: C[C@@H]1CN(C(=O)[C@@H]2CN(C(C)(C)C)C[C@H]2c2ccc(F)cc2F)C[C@H](C)[C@@]1(O)c1ccccc1.Cl
LABEL_VALUE: condition not met
//
COMPOUND: C[C@@H]1CN(C(=O)[C@H]2CN(c3ccncn3)C[C@@H]2c2ccc(F)cc2F)C[C@H](C)[C@@]1(O)c1ccccc1
LABEL_VALUE: condition met
//
COMPOUND: CCCC[C@H](NC(C)=O)C(=O)N[C@H]1CC(=O)NCCCC[C@@H](C(N)=O)NC(=O)[C@H](Cc2c[nH]c3ccccc23)NC(=O)[C@H](CCCNC(=N)N)NC(=O)C(Cc2ccccc2)NC(=O)[C@H](CC2=NC=NC2)NC1=O (single isomer, unassigned)
LABEL_VALUE: condition not met
//
COMPOUND: C[C@@H]1CN(C(=O)[C@@H]2CN(C(C)(C)C)C[C@H]2c2ccc(F)cc2F)C[C@H](C)[C@@]1(O)c1ccc(Cl)cc1
LABEL_VALUE: condition met
//
COMPOUND: C[C@@H]1CN(C(=O)[C@H]2CN(c3cccnc3)C[C@@H]2c2ccc(F)cc2F)C[C@H](C)[C@@]1(O)c1ccccc1
LABEL_VALUE: condition not met

Below 80% on Emax? Entry C[C@@H]1CN(C(=O)[C@H]2CN(c3cccnn3)C[C@@H]2c2ccc(F)cc2F)C[C@H](C)[C@@]1(O)c1ccccc1
condition not met

Below 80% on Emax? Entry CC(C)N1C[C@@H](C(=O)N2C[C@@H](C)[C@](O)(c3ccccc3)[C@@H](C)C2)[C@H](c2ccc(F)cc2F)C1
condition met

Below 80% on Emax? Entry C[C@@H]1CN(C(=O)[C@H]2CN(c3cccnn3)C[C@@H]2c2ccc(F)cc2F)C[C@H](C)[C@@]1(O)c1ccccn1
condition met

Below 80% on Emax? Entry C[C@@H]1CN(C(=O)[C@@H]2CN(C(C)(C)C)C[C@H]2c2ccc(F)cc2F)C[C@H](C)[C@@]1(O)c1c(F)cccc1F
condition met

###

test system: Liver microsomes; assay: Intrinsic clearance in rat liver microsome measured per mg of protein; format: ADME
MEASURED_ATTRIBUTE: clearance (µL/min/mg)
Kindly answer with a numeric value in µL/min/mg, unit omitted.

GIVEN_SMILES: C[C@@H]1CN(C(=O)[C@@H]2CN(C(C)(C)C)C[C@H]2c2ccc(F)cc2F)C[C@H](C)[C@@]1(O)c1ccccc1.Cl
UNIT_TEXT: µL/min/mg
clearance: 60

Next compound, clearance to be filled in.
GET /values?readout=clearance&item= C[C@@H]1CN(C(=O)[C@@H]2CN(C(C)(C)C)C[C@H]2c2ccc(F)cc2F)C[C@H](C)[C@@]1(O)c1ccc(F)cc1.Cl
47

The measured values listed here are drawn from ChEMBL document CHEMBL1156187.
